- System: KRAS PDC tumor spheroids (HUVEC+MSC), viability
- test protocol: Anticancer human tumor 254851-301-R-J1-PDC patient-derived colon carcinoma cell line growth inhibition [KRAS2]
- condition context: second compound 3.16 µM; first compound 0.001 µM; stronger effect = lower value
Listing of entries alongside the reported viability, T/C.
value kind: viability, T/C

• Cn1ncnc1[C@H]1c2n[nH]c(=O)c3cc(F)cc(c23)N[C@@H]1c1ccc(F)cc1 + COc1cc2nc(C)nc(NC(C)c3cc(N)cc(C(F)(F)F)c3)c2cc1OC1CCOC1 = 83.8%
• CC(C)n1nc(-c2ccc3oc(N)nc3c2)c2c(N)ncnc21 + CNCc1ccccc1-c1csc(C(C)Nc2nc(C)nc3cc(OC)c(OC)cc23)c1 = 76.7%
• Cn1ncnc1[C@H]1c2n[nH]c(=O)c3cc(F)cc(c23)N[C@@H]1c1ccc(F)cc1 + C=CC(=O)N1CCN(c2nc(=O)n(-c3c(C)ccnc3C(C)C)c3nc(-c4c(O)cccc4F)c(F)cc23)C(C)C1 = 103%
• CC(C)n1nc(-c2ccc3oc(N)nc3c2)c2c(N)ncnc21 + C=CC(=O)N1CCN(c2nc(=O)n(-c3c(C)ccnc3C(C)C)c3nc(-c4c(O)cccc4F)c(F)cc23)C(C)C1 = 117%
• CC(=O)Nc1cccc(-n2c(=O)n(C3CC3)c(=O)c3c(Nc4ccc(I)cc4F)n(C)c(=O)c(C)c32)c1 + C=CC(=O)N1CCN(c2nc(=O)n(-c3c(C)ccnc3C(C)C)c3nc(-c4c(O)cccc4F)c(F)cc23)C(C)C1 = 85.1%

----------
Listing of entries alongside the reported pIC50.
- System: KRAS PDC tumor spheroids (HUVEC+MSC), viability
- test protocol: Anticancer human tumor 254851-301-R-J1-PDC cell line growth inhibition [KRAS2];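 further: spheroids exposed to compounds for seven days before readout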
- condition context: curve of first compound; second compound 0.1 µM
pIC50: −log10 of the molar value.
value kind: pIC50

* CN(C)C/C=C/C(=O)Nc1cc2c(Nc3ccc(F)c(Cl)c3)ncnc2cc1O[C@H]1CCOC1 + C=CC(=O)N1CCN(c2nc(OCC3CCCN3C)nc3c2CCN(c2cccc4cccc(C)c24)C3)CC1CC#N | < 7.00
* Cn1ncnc1[C@H]1c2n[nH]c(=O)c3cc(F)cc(c23)N[C@@H]1c1ccc(F)cc1 + C=CC(=O)N1CCN(c2nc(OCC3CCCN3C)nc3c2CCN(c2cccc4cccc(C)c24)C3)CC1CC#N | < 7.00
* CC1(C)CCC(CN2CCN(c3ccc(C(=O)NS(=O)(=O)c4ccc(NCC5CCOCC5)c([N+](=O)[O-])c4)c(Oc4cnc5[nH]ccc5c4)c3)CC2)=C(c2ccc(Cl)cc2)C1 + COc1cc2nc(C)nc(NC(C)c3cc(N)cc(C(F)(F)F)c3)c2cc1OC1CCOC1 | < 5.00
* Cn1ncnc1[C@H]1c2n[nH]c(=O)c3cc(F)cc(c23)N[C@@H]1c1ccc(F)cc1 + COc1cc2nc(C)nc(NC(C)c3cc(N)cc(C(F)(F)F)c3)c2cc1OC1CCOC1 | < 7.00

----------
- Test system: KRAS PDC tumor spheroids (HUVEC+MSC), viability
- test protocol: Anticancer human tumor 254851-301-R-J1-PDC cell line growth inhibition [KRAS2];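 further: spheroids exposed to compounds for seven days before readout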
- condition context: curve of first compound; second compound 0.1 µM
value kind: log10 of IC50 (log10 of the value in nM)

- COc1cc(Nc2ncc3c(n2)-c2ccc(Cl)cc2C(c2c(F)cccc2OC)=NC3)ccc1C(=O)O + C=CC(=O)N1CCN(c2nc(OCC3CCCN3C)nc3c2CCN(c2cccc4cccc(C)c24)C3)CC1CC#N: 1.94
- Cn1nccc1Nc1nccc(-c2cc3c(s2)C(C)(C)N(CCN2CCOCC2)C3=O)n1 + C=CC(=O)N1CCN(c2nc(=O)n(-c3c(C)ccnc3C(C)C)c3nc(-c4c(O)cccc4F)c(F)cc23)C(C)C1: 3.44
- CC1COCCN1c1cc(-c2ccnn2C)c2ccnc(-c3ccn[nH]3)c2n1 (configuration not stated) + CNCc1ccccc1-c1csc(C(C)Nc2nc(C)nc3cc(OC)c(OC)cc23)c1: 2.44
- CC(=O)Nc1cccc(-n2c(=O)n(C3CC3)c(=O)c3c(Nc4ccc(I)cc4F)n(C)c(=O)c(C)c32)c1 + CNCc1ccccc1-c1csc(C(C)Nc2nc(C)nc3cc(OC)c(OC)cc23)c1: 0.67
- CC1COCCN1c1cc(-c2ccnn2C)c2ccnc(-c3ccn[nH]3)c2n1 (configuration not stated) + COc1cc2nc(C)nc(NC(C)c3cc(N)cc(C(F)(F)F)c3)c2cc1OC1CCOC1: 1.57
- Cn1nccc1Nc1nccc(-c2cc3c(s2)C(C)(C)N(CCN2CCOCC2)C3=O)n1 + CC1OCC2(CCN(c3cnc(Sc4ccnc(N)c4Cl)c(N)n3)CC2)C1N: 3.24

----------
- Tested on: KRAS PDC tumor spheroids (HUVEC+MSC), viability
- test protocol: Anticancer human tumor 254851-301-R-J1-PDC cell line growth inhibition [KRAS2];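 further: spheroids exposed to compounds for seven days before readout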;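 on viability, T/C: 100% = DMSO vehicle control luminescence of the spheroids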
- condition context: second compound 1 µM; first compound 0.01 µM; stronger effect = lower value
value kind: viability, T/C (%)

- Cn1ncnc1[C@H]1c2n[nH]c(=O)c3cc(F)cc(c23)N[C@@H]1c1ccc(F)cc1 + CC1OCC2(CCN(c3cnc(Sc4ccnc(N)c4Cl)c(N)n3)CC2)C1N: 83.6
- CC(=O)OC12COC1CC(O)C1(C)C(=O)C(O)C3=C(C)C(OC(=O)C(O)C(NC(=O)OC(C)(C)C)c4ccccc4)CC(O)(C(OC(=O)c4ccccc4)C21)C3(C)C (stereo unspecified) + C=CC(=O)N1CCN(c2nc(OCC3CCCN3C)nc3c2CCN(c2cccc4cccc(C)c24)C3)CC1CC#N: 93
- CC(=O)Nc1cccc(-n2c(=O)n(C3CC3)c(=O)c3c(Nc4ccc(I)cc4F)n(C)c(=O)c(C)c32)c1 + COc1cc2nc(C)nc(NC(C)c3cc(N)cc(C(F)(F)F)c3)c2cc1OC1CCOC1: 5.69
- CC(C)n1nc(-c2ccc3oc(N)nc3c2)c2c(N)ncnc21 + C=CC(=O)N1CCN(c2nc(OCC3CCCN3C)nc3c2CCN(c2cccc4cccc(C)c24)C3)CC1CC#N: 58.8
- CC(C)n1nc(-c2ccc3oc(N)nc3c2)c2c(N)ncnc21 + CNCc1ccccc1-c1csc(C(C)Nc2nc(C)nc3cc(OC)c(OC)cc23)c1: 68
- CC(=O)OC12COC1CC(O)C1(C)C(=O)C(O)C3=C(C)C(OC(=O)C(O)C(NC(=O)OC(C)(C)C)c4ccccc4)CC(O)(C(OC(=O)c4ccccc4)C21)C3(C)C (stereo unspecified) + CC1OCC2(CCN(c3cnc(Sc4ccnc(N)c4Cl)c(N)n3)CC2)C1N: 80.7

----------
- Tested on: KRAS PDC tumor spheroids (HUVEC+MSC), viability
- test protocol: Anticancer human tumor 254851-301-R-J1-PDC cell line growth inhibition [KRAS2];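 further: spheroids exposed to compounds for seven days before readout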
- condition context: curve of first compound; second compound 10 µM
pIC50: −log10 of the molar value.
value kind: pIC50

* Cn1ncnc1[C@H]1c2n[nH]c(=O)c3cc(F)cc(c23)N[C@@H]1c1ccc(F)cc1 + CC1OCC2(CCN(c3cnc(Sc4ccnc(N)c4Cl)c(N)n3)CC2)C1N | < 7.00
* CC(C)NCC(C(=O)N1CCN(c2ncnc3c2C(C)CC3O)CC1)c1ccc(Cl)cc1 (stereo not drawn) + C=CC(=O)N1CCN(c2nc(=O)n(-c3c(C)ccnc3C(C)C)c3nc(-c4c(O)cccc4F)c(F)cc23)C(C)C1 | < 5.00
* CC(C)NCC(C(=O)N1CCN(c2ncnc3c2C(C)CC3O)CC1)c1ccc(Cl)cc1 (stereo not drawn) + CNCc1ccccc1-c1csc(C(C)Nc2nc(C)nc3cc(OC)c(OC)cc23)c1 | > 7.50

----------
- System: KRAS PDC tumor spheroids (HUVEC+MSC), viability
- test protocol: Anticancer human tumor 254851-301-R-J1-PDC cell line growth inhibition [KRAS2];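 further: spheroids exposed to compounds for seven days before readout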;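 on viability, T/C: 100% = DMSO vehicle control luminescence of the spheroids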
- condition context: second compound 0.0316 µM; first compound 0.1 µM; stronger effect = lower value
Criterion: viability, T/C strictly less than 40%. Met: true. Not met: false.

- CCN1CCN(Cc2ccc(Nc3ncc(F)c(-c4cc(F)c5nc(C)n(C(C)C)c5c4)n3)nc2)CC1 + C=CC(=O)N1CCN(c2nc(OCC3CCCN3C)nc3c2CCN(c2cccc4cccc(C)c24)C3)CC1CC#N: false
- Cn1ncnc1[C@H]1c2n[nH]c(=O)c3cc(F)cc(c23)N[C@@H]1c1ccc(F)cc1 + C=CC(=O)N1CCN(c2nc(OCC3CCCN3C)nc3c2CCN(c2cccc4cccc(C)c24)C3)CC1CC#N: false
- COc1cc(Nc2ncc3c(n2)-c2ccc(Cl)cc2C(c2c(F)cccc2OC)=NC3)ccc1C(=O)O + C=CC(=O)N1CCN(c2nc(OCC3CCCN3C)nc3c2CCN(c2cccc4cccc(C)c24)C3)CC1CC#N: false
- CC(C)n1nc(-c2ccc3oc(N)nc3c2)c2c(N)ncnc21 + C=CC(=O)N1CCN(c2nc(OCC3CCCN3C)nc3c2CCN(c2cccc4cccc(C)c24)C3)CC1CC#N: true
- CC(=O)OC12COC1CC(O)C1(C)C(=O)C(O)C3=C(C)C(OC(=O)C(O)C(NC(=O)OC(C)(C)C)c4ccccc4)CC(O)(C(OC(=O)c4ccccc4)C21)C3(C)C (stereo not given) + C=CC(=O)N1CCN(c2nc(OCC3CCCN3C)nc3c2CCN(c2cccc4cccc(C)c24)C3)CC1CC#N: false
